Recorded melting point values for a group of compounds are listed next.
reported-metric: melting point

compound="CCNc1c(Nc2ccccc2C2CN(C)Cc3c(Cl)cc(Cl)cc32)c(=O)c1=O (stereo not shown) [Example 49]" reported_metric="melting point" result="205 to 208 °C"
compound="CNc1c(Nc2cccc(C3CN(C)Cc4c(Cl)cc(Cl)cc43)c2)c(=O)c1=O (stereo not shown) [Example 60]" reported_metric="melting point" result="295 to 298 °C"
compound="CCCN(C)c1c(Nc2cccc([C@@H]3CN(C)Cc4c(Cl)cc(Cl)cc43)c2)c(=O)c1=O [Example 33]" reported_metric="melting point" result="135 to 140 °C"
compound="CNc1c(Nc2ccccc2C2CN(C)Cc3c(Cl)cc(Cl)cc32)c(=O)c1=O (stereo not shown) [Example 44]" reported_metric="melting point" result="224 to 230 °C"

---

reported-metric: melting point

molecule="CC(C)N(C)c1c(Nc2ccccc2[C@@H]2CN(C)Cc3c(Cl)cc(Cl)cc32)c(=O)c1=O [Example 42]" result="210 to 214 °C"
molecule="CCCN(C)c1c(Nc2ccccc2[C@@H]2CN(C)Cc3c(Cl)cc(Cl)cc32)c(=O)c1=O [Example 37]" result="236 to 240 °C"
molecule="CN1Cc2c(Cl)cc(Cl)cc2[C@H](c2ccccc2Nc2c(N(C)C)c(=O)c2=O)C1 [Example 21]" result="236 to 240 °C"
molecule="CN1Cc2c(Cl)cc(Cl)cc2[C@H](c2ccc(Nc3c(N4CCCC4)c(=O)c3=O)cc2)C1 [Example 36]" result="264 to 270 °C"
molecule="CC(C)Nc1c(Nc2ccccc2C2CN(C)Cc3c(Cl)cc(Cl)cc32)c(=O)c1=O (centres unmarked) [Example 46]" result="238 to 241 °C"
molecule="COCCN(C)c1c(Nc2ccc(C3CN(C)Cc4c(Cl)cc(Cl)cc43)cc2)c(=O)c1=O (centres unmarked) [Example 26]" result="206 to 210 °C"
molecule="CN1Cc2c(Cl)cc(Cl)cc2[C@H](c2ccc(Nc3c(N(C)C)c(=O)c3=O)cc2)C1 [Example 20]" result="240 to 247 °C"
molecule="CN(C)CCNc1c(Nc2ccccc2C2CN(C)Cc3c(Cl)cc(Cl)cc32)c(=O)c1=O (centres unmarked) [Example 50]" result="208 to 211 °C"

---

Overview of recorded melting point for various compounds
reported-metric: melting point

compound="CCCCCCNc1c(Nc2ccc(C3CN(C)Cc4c(Cl)cc(Cl)cc43)cc2)c(=O)c1=O (centres unmarked)" result="234 to 238 °C"
compound="CCN(CC)c1c(Nc2ccc(C3CN(C)Cc4c(Cl)cc(Cl)cc43)cc2)c(=O)c1=O (centres unmarked)" result="275 to 280 °C"
compound=CCN(CC)c1c(Nc2ccccc2[C@@H]2CN(C)Cc3c(Cl)cc(Cl)cc32)c(=O)c1=O result="246 to 250 °C"
compound="CCCCCCNc1c(Nc2ccccc2C2CN(C)Cc3c(Cl)cc(Cl)cc32)c(=O)c1=O (centres unmarked)" result="157 to 160 °C"
compound="CCCN(CC1CC1)c1c(Nc2ccc(C3CN(C)Cc4c(Cl)cc(Cl)cc43)cc2)c(=O)c1=O (centres unmarked)" result="134 to 144 °C"
compound=CCN(CC)c1c(Nc2ccc([C@@H]3CN(C)Cc4c(Cl)cc(Cl)cc43)cc2)c(=O)c1=O result="220 to 225 °C"
compound=CC(C)N(C)c1c(Nc2ccc([C@@H]3CN(C)Cc4c(Cl)cc(Cl)cc43)cc2)c(=O)c1=O result="165 to 175 °C (dec.)"
compound="CN1Cc2c(Cl)cc(Cl)cc2C(c2cccc(Nc3c(NC4CCCC4)c(=O)c3=O)c2)C1 (centres unmarked)" result="248 to 252 °C"
